# Tested on: TZM-bl cells
# method-description: alamarBlue cytotoxicity in TZM-bl cells
# Format: cell-based
quantity-kind: CC50 (µM)
Express the result in µM but write the number alone.

Query :: Entry CCn1c2c(sc1=S)[S][Au-]1([S]c3sc(=S)n(CC)c3[S]1)[S]2.c1ccc([P+](c2ccccc2)(c2ccccc2)c2ccccc2)cc1 [[P][AuSEt(=S)]] : reported CC50 = ?
Result :: 4.92

* * *

# Test system: TZM-bl cells
# method-description: alamarBlue cytotoxicity in TZM-bl cells
# Format: cell-based
# condition-parameters: TZM-bl cells, alamarBlue; read-out: CC50
quantity-kind: CC50 (µM)
Numbers only; they are read as µM.

Query :: What value of CC50 has been recorded for this entry: CC(=O)OC[C@H]1O[C@@H]([S-])[C@H](OC(C)=O)[C@@H](OC(C)=O)[C@@H]1OC(C)=O.CCP(CC)CC.[Au+] [Auranofin, reference compound]
Result :: 3.21

* * *

# System: C. glabrata CBS138
# method-description: MIC determination, C. glabrata
# Type: cell-based, Candida glabrata
# condition-parameters: RPMIG, 24 h, 35 °C
quantity-kind: MIC C. glabrata CBS138 (µg/mL)
A number alone suffices; assume µg/mL.

Query :: Please look up its MIC C. glabrata CBS138: CCCn1c2c(sc1=S)[S][Au-]1([S]c3sc(=S)n(CCC)c3[S]1)[S]2.CC[N+](CC)(CC)CC [[N][AuSPr(=S)]]
Result :: 1.6

Query :: Same thing, different molecule: CC[N+](CC)(CC)CC.CCn1c2c(sc1=S)[Se][Au-]1([Se]c3sc(=S)n(CC)c3[Se]1)[Se]2 [[N][AuSeEt(=S)]]
Result :: 1.6

Query :: // repeat for CC(C)n1c2c(sc1=S)[Se][Au-]1([Se]c3sc(=S)n(C(C)C)c3[Se]1)[Se]2.CC[N+](CC)(CC)CC [[N][AuSeiPr(=S)]] and report
Result :: 2.1

Query :: Param item: CC(=O)OC[C@H]1O[C@@H]([S-])[C@H](OC(C)=O)[C@@H](OC(C)=O)[C@@H]1OC(C)=O.CCP(CC)CC.[Au+] [Auranofin, reference compound]
Result :: 15.2

Query :: Thanks! And CC[N+](CC)(CC)CC.Cn1c2c(sc1=S)[S][Au-]1([S]c3sc(=S)n(C)c3[S]1)[S]2 [[N][AuSMe(=S)]] ?
Result :: 2.9

Query :: Here is the next molecule: CC[N+](CC)(CC)CC.CCn1c2c(sc1=[Se])[Se][Au-]1([Se]c3sc(=[Se])n(CC)c3[Se]1)[Se]2 [[N][AuSeEt(=Se)]]
Result :: 1.8

* * *

# Test system: A2780 ovarian cancer cells
# method-description: MTT cytotoxicity assay in A2780 (cisplatin sensitive) ovarian cancer cells
# Assay type: cell-based, human
# condition-parameters: 24 h incubation, read-out: IC50 A2780, 24 h
# Protocol: Cells were exposed to increasing concentrations of the complexes (0.01–100 μM) for 24 and/or 48 h, at 37 °C. The IC50 values were calculated from dose–response curves using the colorimetric MTT assay. […] The cytotoxic activity of the complexes was evaluated in the A2780 (cisplatin sensitive) (Sigma-Aldrich) and OVCAR8 (cisplatin resistant) (ATCC) ovarian cancer cells. […]
quantity-kind: pIC50
When answering, recall that pIC50 equals minus log10 of the concentration in mol/L, and write that number alone.

Query :: State the recorded pIC50 for this entry: CCn1c2c(sc1=[Se])[Se][Au-]1([Se]c3sc(=[Se])n(CC)c3[Se]1)[Se]2.c1ccc([P+](c2ccccc2)(c2ccccc2)c2ccccc2)cc1 [[P][AuSeEt(=Se)]]
Result :: 5.40

Query :: Queued: CCCn1c2c(sc1=[Se])[S][Au-]1([S]c3sc(=[Se])n(CCC)c3[S]1)[S]2.c1ccc([P+](c2ccccc2)(c2ccccc2)c2ccccc2)cc1 [[P][AuSPr(=Se)]]
Result :: 6.21

Query :: Another: CCCCn1c2c(sc1=S)[S][Au-]1([S]c3sc(=S)n(CCCC)c3[S]1)[S]2.c1ccc([P+](c2ccccc2)(c2ccccc2)c2ccccc2)cc1 [[P][AuSBu(=S)]]
Result :: 5.86

Query :: What about this compound? CC[N+](CC)(CC)CC.CCn1c2c(sc1=[Se])[Se][Au-]1([Se]c3sc(=[Se])n(CC)c3[Se]1)[Se]2 [[N][AuSeEt(=Se)]]
Result :: 4.57

Query :: Item: CCCn1c2c(sc1=S)[S][Au-]1([S]c3sc(=S)n(CCC)c3[S]1)[S]2.CC[N+](CC)(CC)CC [[N][AuSPr(=S)]]
Result :: 5.53

Query :: Then what about the compound CCn1c2c(sc1=[Se])[S][Au-]1([S]c3sc(=[Se])n(CC)c3[S]1)[S]2.c1ccc([P+](c2ccccc2)(c2ccccc2)c2ccccc2)cc1 [[P][AuSEt(=Se)]] ?
Result :: 6.15
